B1: library; a variant is named by its letters at N, in order (parent)
chain: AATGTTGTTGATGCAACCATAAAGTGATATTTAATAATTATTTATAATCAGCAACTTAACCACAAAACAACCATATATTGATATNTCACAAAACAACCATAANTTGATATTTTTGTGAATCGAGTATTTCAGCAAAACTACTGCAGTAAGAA

variants of: B1; experiment: relative integration efficiency (T-LR orientation) vs wild-type transposon end (log2 (normalized fold change)); transposon end mutated: left end; higher = more efficient transposition; settings: with VchCAST RNA-guided transposition machinery (E. coli BL21(DE3) host, lacZ target)
Assign classes using reported relative integration efficiency (log2) values and the ranges class 1: < -0.2; class 2: ≥ -0.2 and < 0.3; class 3: ≥ 0.3, please.

[
  {
    "MUTATION_SPEC": "CG T43A A44T T45A A46T",
    "ASSIGNED_CATEGORY": "class 1"
  },
  {
    "MUTATION_SPEC": "CG T78G T79G G80T A81C",
    "ASSIGNED_CATEGORY": "class 1"
  },
  {
    "MUTATION_SPEC": "CG T45A A46T",
    "ASSIGNED_CATEGORY": "class 1"
  },
  {
    "MUTATION_SPEC": "CG G115C",
    "ASSIGNED_CATEGORY": "class 3"
  },
  {
    "MUTATION_SPEC": "CG G117T A118C",
    "ASSIGNED_CATEGORY": "class 2"
  },
  {
    "MUTATION_SPEC": "CG A62T C63G",
    "ASSIGNED_CATEGORY": "class 2"
  },
  {
    "MUTATION_SPEC": "CG T38C",
    "ASSIGNED_CATEGORY": "class 2"
  },
  {
    "MUTATION_SPEC": "CG A22C",
    "ASSIGNED_CATEGORY": "class 1"
  },
  {
    "MUTATION_SPEC": "TG G24A T30A T76A A77G C87T",
    "ASSIGNED_CATEGORY": "class 3"
  },
  {
    "MUTATION_SPEC": "CG G26A",
    "ASSIGNED_CATEGORY": "class 2"
  },
  {
    "MUTATION_SPEC": "CG A119G",
    "ASSIGNED_CATEGORY": "class 2"
  }
]

Values compiled from the supplement of paper PMC10201428.
